Reference for the values: ChEMBL document CHEMBL2062428

# TESTED_TARGET: Prostaglandin G/H synthase 1 (Ovis aries) (UniProt P05979)
# Sequence (P05979 whole entry): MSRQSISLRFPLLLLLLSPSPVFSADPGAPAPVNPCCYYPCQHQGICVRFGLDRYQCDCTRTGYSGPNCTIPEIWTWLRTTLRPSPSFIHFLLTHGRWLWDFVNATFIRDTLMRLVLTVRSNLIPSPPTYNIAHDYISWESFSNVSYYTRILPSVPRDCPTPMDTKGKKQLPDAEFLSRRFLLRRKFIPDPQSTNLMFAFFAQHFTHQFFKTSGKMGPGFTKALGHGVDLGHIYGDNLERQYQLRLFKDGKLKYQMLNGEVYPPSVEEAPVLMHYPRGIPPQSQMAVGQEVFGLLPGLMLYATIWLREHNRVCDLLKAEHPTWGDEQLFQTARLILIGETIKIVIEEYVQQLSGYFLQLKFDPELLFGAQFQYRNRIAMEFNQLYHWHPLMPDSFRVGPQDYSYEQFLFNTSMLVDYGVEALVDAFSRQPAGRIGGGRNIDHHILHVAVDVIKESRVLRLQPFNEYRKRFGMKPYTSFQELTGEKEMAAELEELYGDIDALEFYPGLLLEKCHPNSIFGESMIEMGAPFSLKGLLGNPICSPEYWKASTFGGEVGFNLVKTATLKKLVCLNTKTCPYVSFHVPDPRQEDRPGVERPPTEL
# PROTOCOL: Inhibition of ovine COX-1 using [14C] arachidonic acid as substrate at 4 uM preincubated for 17 mins before substrate addition measured after 3 mins by thin-layer chromatographic analysis
EXPERIMENTAL_READOUT: inhibition
Answer with the number, then the unit.

Prompt line: Bench note: what inhibition did CC(C(=O)O)C1=C/C(=C\c2ccc(-c3ccccc3)cc2)c2ccc(F)cc21 (stereo not given) show?
Response line: 30%

Prompt line: I have this compound here, CSc1ccc(/C=C2\C=C(CC(=O)NS(C)(=O)=O)c3cc(F)ccc32)cc1 , and I need its recorded inhibition.
Response line: 21%

Prompt line: Record request: inhibition value, item O=C(O)CC1=C/C(=C\c2ccc(-c3ccc(C(F)(F)F)cc3)cc2)c2ccc(F)cc21
Response line: 31%

Prompt line: Please give the measured inhibition for this compound: Cc1ccc(/C=C2\C=C(CC(=O)O)c3cc(F)ccc32)cc1
Response line: 52%

Prompt line: Fill blank: measured inhibition of the compound O=C(O)CC1=C/C(=C\c2ccc3cccnc3c2)c2ccc(F)cc21 is ____.
Response line: 58%

Prompt line: For the compound CCOC(=O)CC1=C/C(=C\c2ccc(-c3ccccc3)cc2)c2ccc(F)cc21 , what inhibition is on record?
Response line: 64%

Prompt line: Param item = CSc1ccc(/C=C2\C=C(CC(=O)O)c3cc(F)ccc32)cc1 ; retrieve measured inhibition.
Response line: 65%

Prompt line: Need inhibition of Cc1nc(-c2ccccc2)ncc1/C=C1\C=C(CC(=O)O)c2cc(F)ccc21 , thanks.
Response line: 19%

Prompt line: Recorded inhibition for C[S+]([O-])c1ccc(/C=C2\C=C(CC(=O)O)c3cc(F)ccc32)cc1 (stereo not given) , please?
Response line: 27%

Prompt line: State the recorded inhibition for this entry: CSc1ccc(/C=C2\C=C(CC(=O)NS(=O)(=O)c3ccc(C(C)=O)cc3)c3cc(F)ccc32)cc1
Response line: 3.5%

Prompt line: Report inhibition for CCOC(=O)C(C)(C)C1=C/C(=C\c2cccc(-c3ccc(F)cc3)n2)c2ccc(F)cc21 please.
Response line: 24%

Prompt line: Look at this compound and give its reported inhibition. O=C(O)CC1=C/C(=C\c2ccc3c(c2)Cc2ccccc2-3)c2ccc(F)cc21
Response line: 70%

Prompt line: What measured inhibition goes with CSc1ccc(/C=C2\C=C(CC(=O)NS(=O)(=O)c3ccc(F)cc3)c3cc(F)ccc32)cc1 ?
Response line: 44%

Prompt line: Need inhibition, item O=C(O)CC1=C/C(=C\c2ccc3nccnc3c2)c2ccc(F)cc21
Response line: 31%

Prompt line: Look up inhibition: O=C(O)CC1=C/C(=C\c2ccc(-c3ccc(F)nc3)cc2)c2ccc(F)cc21
Response line: 27%

Prompt line: Need inhibition of CCOC(=O)C(C)(C)C1=C/C(=C\c2ccc3c(c2)Cc2ccccc2-3)c2ccc(F)cc21 , thanks.
Response line: 34%

Prompt line: Need inhibition, item CSc1ccc(/C=C2\C=C(C(C)(C)C(=O)O)c3cc(F)ccc32)cc1
Response line: 17%

Prompt line: # input compound: CSc1ccc(/C=C2\C=C(CC(=O)NS(=O)(=O)c3ccc(OC(F)(F)F)cc3)c3cc(F)ccc32)cc1 ; wanted: its inhibition
Response line: 47%

Prompt line: # input compound: CCOC(=O)C(C)(C)C1=C/C(=C\c2ccc(-c3ccccc3)c(F)c2)c2ccc(F)cc21 ; wanted: its inhibition
Response line: 40%

Prompt line: # get_value(readout='inhibition', item= CSc1ccc(/C=C2\C=C(CC(=O)NS(=O)(=O)c3ccc(Cl)s3)c3cc(F)ccc32)cc1 )
Response line: 59%

----------
# TESTED_TARGET: Prostaglandin G/H synthase 1 (Ovis aries)
# PROTOCOL: Inhibition of ovine COX-1 using [14C] arachidonic acid as substrate at 4 uM preincubated for 17 mins before substrate addition measured after 3 mins by thin-layer chromatographic analysis
EXPERIMENTAL_READOUT: inhibition (%)
I only need the number, in %, no unit after it.

Prompt line: Recall the recorded inhibition for CSc1ccc(/C=C2\C=C(CC(=O)NS(=O)(=O)C(F)(F)F)c3cc(F)ccc32)cc1 with Prostaglandin G/H synthase 1 (Ovis aries) and state it.
Response line: 65

Prompt line: # value lookup — system Prostaglandin G/H synthase 1 (Ovis aries), readout inhibition, item CCOC(=O)CC1=C/C(=C\c2ccc(C(=O)OCC)cc2)c2ccc(F)cc21
Response line: 39

Prompt line: Any idea what inhibition came out for CCOC(=O)C(C)(C)C1=C/C(=C\c2ccc(-c3ccc(F)cc3)cc2)c2ccc(F)cc21 on Prostaglandin G/H synthase 1 (Ovis aries)?
Response line: 10

Prompt line: GET /values?readout=inhibition&system=Prostaglandin G/H synthase 1 (Ovis aries)&item= O=C(O)CC1=C/C(=C\c2ccc(-c3ccccc3)c(F)c2)c2ccc(F)cc21
Response line: 44

Prompt line: Tell me reported inhibition for O=C(O)CC1=C/C(=C\c2ccc(F)c3ccccc23)c2ccc(F)cc21 , tested with Prostaglandin G/H synthase 1 (Ovis aries).
Response line: 61

----------
# Tested on: MDA-MB-231
# PROTOCOL: Cytotoxicity against human MDA-MB-231 cells after 48 hrs by WST1 assay
# Format: functional, cell-based
# REPORTED_CONDITIONS: MDA-MB-231, 48 h
Consider the following compounds; for each one, report its EC50.
Show the value, then the unit it is measured in.

Prompt line: Quick one: EC50 of CSc1ccc(/C=C2\C=C(CC(=O)NS(=O)(=O)C(F)(F)F)c3cc(F)ccc32)cc1 ?
Response line: 215 µM

Prompt line: May I ask what EC50 has been recorded for O=C(O)CC1=C/C(=C\c2ccc(-c3ccccc3)cc2)c2ccc(F)cc21 ?
Response line: 141 µM

Prompt line: Name the recorded EC50 for CSc1ccc(/C=C2/C(C)=C(CC(=O)O)c3cc(F)ccc32)cc1 [SULINDAC SULFIDE] .
Response line: 209 µM

----------
# TESTED_TARGET: Prostaglandin G/H synthase 1 (Ovis aries)
# PROTOCOL: Inhibition of ovine COX-1 using [14C] arachidonic acid as substrate at 4 uM preincubated for 17 mins before substrate addition measured after 3 mins by thin-layer chromatographic analysis
Exercise: for every item that follows, state its recorded inhibition.
Report the figure in % without appending any unit label.

Prompt line: Data request, read-out inhibition, for CSc1ccc(/C=C2\C=C(CC(=O)NS(=O)(=O)c3ccc(C(F)(F)F)cc3)c3cc(F)ccc32)cc1
Response line: 48

Prompt line: Bench note: what inhibition did CC(C)(C)Oc1ccc(/C=C2\C=C(CC(=O)O)c3cc(F)ccc32)cc1 show?
Response line: 17

Prompt line: Fill in the blank: the reported inhibition of O=C(O)CC1=C/C(=C\c2ccc(S(=O)(=O)C(F)(F)F)cc2)c2ccc(F)cc21 is ____.
Response line: 34

Prompt line: I am curious: what inhibition value has been reported for CSc1ccc(/C=C2\C=C(CC(=O)NS(=O)(=O)c3ccc(C(C)C)cc3)c3cc(F)ccc32)cc1 ?
Response line: 45

Prompt line: Suppose we examine the compound CSc1ccc(/C=C2\C=C(CC(=O)OC(C)C)c3cc(F)ccc32)cc1 ; what inhibition value has been reported?
Response line: 27

----------
# TESTED_TARGET: Prostaglandin G/H synthase 2 (Mus musculus)
# PROTOCOL: Inhibition of mouse COX-2 using [14C] arachidonic acid as substrate at 4 uM preincubated for 17 mins before substrate addition measured after 3 mins by thin-layer chromatographic analysis
EXPERIMENTAL_READOUT: inhibition
Give the number first and the unit second.

Prompt line: Dear colleague, I am looking for the recorded inhibition of the following molecule: O=C(O)CC1=C/C(=C\c2cnc(C3CCCCC3)nc2)c2ccc(F)cc21
Response line: 25%

Prompt line: Name the recorded inhibition for CSc1ccc(/C=C2\C=C(CC(=O)NS(=O)(=O)C(F)(F)F)c3cc(F)ccc32)cc1 .
Response line: 15%

Prompt line: Quick one: inhibition of CCOC(=O)C(C)(C)C1=C/C(=C\c2ccc(-c3ccccc3)c(F)c2)c2ccc(F)cc21 ?
Response line: 15%

Prompt line: Which inhibition value belongs to CSc1ccc(/C=C2\C=C(CC(=O)NS(=O)(=O)c3ccc(C)cc3)c3cc(F)ccc32)cc1 ?
Response line: 20%

Prompt line: Recorded inhibition of CSc1ccc(/C=C2\C=C(CC(=O)OC(C)C)c3cc(F)ccc32)cc1 , please.
Response line: 0%

Prompt line: Dear colleague, I am looking for the recorded inhibition of the following molecule: CCOC(=O)C(C)(C)C1=C/C(=C\c2ccc(SC)cc2)c2ccc(F)cc21
Response line: 0%

Prompt line: Request the reported inhibition associated with CCOC(=O)CC1=C/C(=C\c2ccc(C(=O)OCC)cc2)c2ccc(F)cc21
Response line: 0%

Prompt line: State the recorded inhibition for this entry: CSc1ccc(/C=C2\C=C(CC(=O)NS(=O)(=O)c3ccc(OC(F)(F)F)cc3)c3cc(F)ccc32)cc1
Response line: 32%

----------
# TESTED_TARGET: Prostaglandin G/H synthase 1 (Ovis aries) (UniProt P05979)
# PROTOCOL: Inhibition of ovine COX-1 using [14C] arachidonic acid as substrate at 4 uM preincubated for 17 mins before substrate addition measured after 3 mins by thin-layer chromatographic analysis
Threshold check on inhibition: at or above 40% gives y, strictly below gives n.

Prompt line: In plain terms: is recorded inhibition at least 40% for CCOC(=O)C(C)(C)C1=C/C(=C\c2ccc(-c3ccccc3)cc2)c2ccc(F)cc21 ?
Response line: n

Prompt line: Reported inhibition at or above 40%? O=C(O)CC1=C/C(=C\c2cnc(C3CCCCC3)nc2)c2ccc(F)cc21
Response line: y

Prompt line: State whether the measured inhibition reaches 40%, counting equality as reaching it, for CCOC(=O)C(C)(C)C1=C/C(=C\c2cnc(-c3ccccc3)nc2C)c2ccc(F)cc21
Response line: n

Prompt line: Kindly determine if inhibition recorded for CS(=O)(=O)c1ccc(-c2cccc(/C=C3\C=C(CC(=O)O)c4cc(F)ccc43)n2)cc1 is above or exactly 40%.
Response line: n

Prompt line: Is reported inhibition greater than or equal to 40% here: O=C(O)CC1=C/C(=C\c2ccc(C(=O)O)cc2)c2ccc(F)cc21
Response line: y

Prompt line: Decide: inhibition of CCOC(=O)C(C)(C)C1=C/C(=C\c2cccc(-c3ccccc3)c2)c2ccc(F)cc21 >= 40%?
Response line: n

Prompt line: Hi, just wondering whether CSc1ccc(/C=C2\C=C(CC(=O)NS(=O)(=O)c3ccccc3C)c3cc(F)ccc32)cc1 shows inhibition of 40% or higher.
Response line: y

Prompt line: Check the entry CSc1ccc(/C=C2\C=C(CC(=O)NS(=O)(=O)c3ccc4ccccc4c3)c3cc(F)ccc32)cc1 : does inhibition equal or exceed 40%?
Response line: y

Prompt line: Quick check, inhibition >= 40%? CCOC(=O)C(C)(C)C1=C/C(=C\c2cc(-c3ccc(C)cc3)on2)c2ccc(F)cc21
Response line: n

Prompt line: Say whether CCOC(=O)CC1=C/C(=C\c2ccc(SC)cc2)c2ccc(F)cc21 shows inhibition of 40% or more.
Response line: n

Prompt line: Identify whether the reported inhibition of the following compound is 40% or greater: CSc1ccc(/C=C2\C=C(CC(=O)NS(=O)(=O)c3ccc(C)cc3)c3cc(F)ccc32)cc1
Response line: y

Prompt line: Determine whether this compound has inhibition no lower than 40%: O=C(O)CC1=C/C(=C\c2ccc3cccnc3n2)c2ccc(F)cc21
Response line: n

Prompt line: // inclusive: inhibition at least 40%? input: CSc1ccc(/C=C2\C=C(CC(N)=O)c3cc(F)ccc32)cc1
Response line: n

Prompt line: Does O=C(O)CC1=C/C(=C\c2cccc(-c3ccc4c(c3)OCO4)n2)c2ccc(F)cc21 have a reported inhibition of at least 40%?
Response line: y

Prompt line: Please tell me: is the compound O=C(O)CC1=C/C(=C\c2ccc([S+]([O-])C(F)(F)F)cc2)c2ccc(F)cc21 (configuration not stated) at or over 40% in terms of inhibition?
Response line: y

Prompt line: Assess whether reported inhibition for O=C(O)CC1=C/C(=C\c2cnc(-c3ccccc3)nc2)c2ccc(F)cc21 sits at 40% or higher.
Response line: n
